- assayedTarget: Glucose transporter (Leishmania mexicana) (UniProt O61059)
- assayComment: ST_JUDE_LEISH: Cytotoxicity at 2uM final concentration against transgenic Leishmania Mexicana promastigotes LmGT2 that are glucose transport deficient and complemented with the L. Mexicana glucose transporter 2. Activity is measured by DNA content using SYBR green in vitro
- Type: functional
Overview of reported inhibition across a group of compounds:
Provide the reading as a plain figure in %.

Illustrative cases are given below, each with its answer.
CCN1CCC(N(Cc2ccc(-c3ccc(C(F)(F)F)cc3)cc2)C(=O)Cn2c(CCc3cccc(F)c3F)cc(=O)c3c2CCC3)CC1 = 0.64
Cc1cc(NCCC(=O)Nc2ccccc2)nc(NCc2ccccc2C)n1 = 7.37
CN1CCN(c2ccc(Nc3nccc(-c4c(-c5cccc(NC(=O)c6c(F)cccc6F)c5)nn5ccccc45)n3)cc2)CC1 = 4.51

// next entry
Notebook: `COCCNC(=O)c1ccc(OC2CCN(Cc3ccc(F)c(F)c3)CC2)c(Cl)c1` , inhibition read as -2.21

Values compiled from ChEMBL document CHEMBL3433997.
